Where these numbers come from: the CombiSolv-Exp solvation set (Vermeire and Green 2021)

// reported solvation free energy, 298 K per item
assayInfo: solvent given as SMILES
conditionSummary: in CCCO
// return numeric value only (unit: kcal/mol, not printed)

Examples from the recorded data:
# compound, quantityUnit, solvation free energy, 298 K
data = [
    ("FC(F)(F)C(F)(F)C(F)(F)C(F)(F)C(F)(F)C(F)(F)C(F)(F)F", "kcal/mol", -1.24),
    ("CCC(C)(C)C(=O)OC1CC(C)C=C2C=CC(C)C(CCC3CC(O)CC(=O)O3)C21 (stereo not given)", "kcal/mol", -25.1),
    ("C1CCCCCC1", "kcal/mol", -4.27),
]

Ask | Tell me measured solvation free energy, 298 K for `CNC` please.
Reply | -2.99

Ask | Tell me measured solvation free energy, 298 K for `CN(C)C(=O)Nc1ccc(Cl)cc1` please.
Reply | -13.3

Ask | Tell me measured solvation free energy, 298 K for `COc1cc(C(C)=O)ccc1O` please.
Reply | -11.8

Ask | Tell me measured solvation free energy, 298 K for `O=C(O)c1cccc(Cl)c1` please.
Reply | -10.7
